Measured IC50 values are reported for all entries that follow.
# study.system: SARS-CoV-1 Mpro (Severe acute respiratory syndrome coronavirus)
# test.method.notes: biochemical
Numeric answer only, unit µM assumed.

See these solved cases before continuing.
INSERT INTO results (smiles_data, study_system, measure_name, value_measured) VALUES
  ('Cc1ccc(F)c2[nH]c(C(=O)N3C[C@H]4[C@@H]([C@H]3C(=O)N[C@H](C=O)C[C@@H]3CCNC3=O)C4(C)C)cc12', 'SARS-CoV-1 Mpro (Severe acute respiratory syndrome coronavirus)', 'IC50', 0.0276),
  ('CC1(C)[C@@H]2[C@@H](C(=O)N[C@H](C=O)C[C@@H]3CCNC3=O)N(C(=O)C3(O)CCCCC3)C[C@@H]21', 'SARS-CoV-1 Mpro (Severe acute respiratory syndrome coronavirus)', 'IC50', 0.115),
  ('CC1(C)[C@@H]2[C@@H](C(=O)N[C@H](C=O)C[C@@H]3CCNC3=O)N(C(=O)c3cc4occc4[nH]3)C[C@@H]21', 'SARS-CoV-1 Mpro (Severe acute respiratory syndrome coronavirus)', 'IC50', 0.0868);

Problem: Field request: IC50 | item: `O=C[C@H](C[C@@H]1CCNC1=O)NC(=O)[C@@H]1C[C@@H]2CCCC[C@@H]2N1C(=O)c1cc2ccccc2[nH]1`
Solution: 0.339

Problem: Field request: IC50 | item: `CC1(C)[C@@H]2[C@@H](C(=O)N[C@H](C#N)C[C@@H]3CCNC3=O)N(C(=O)C3(c4ccccc4)CCCC3)C[C@@H]21`
Solution: 0.767

Problem: Field request: IC50 | item: `C=C1C[C@@H](C(=O)N[C@H](C=O)C[C@@H]2CCNC2=O)N(C(=O)c2cc3ccccc3[nH]2)C1`
Solution: 0.159
